Origin of measurements: ChEMBL document CHEMBL1152507

Reported pKi values are given for each entry in this list.
molecular target: UniProtKB P23975; assay: Displacement of [125I]methyl 3-(4-iodophenyl)-8-methyl-8-aza-bicyclo[3.2.1]octane-2-carboxylate from human recombinant NET expressed in african green monkey COS1 cells by liquid scintillation counting
Sequence (P23975 whole entry): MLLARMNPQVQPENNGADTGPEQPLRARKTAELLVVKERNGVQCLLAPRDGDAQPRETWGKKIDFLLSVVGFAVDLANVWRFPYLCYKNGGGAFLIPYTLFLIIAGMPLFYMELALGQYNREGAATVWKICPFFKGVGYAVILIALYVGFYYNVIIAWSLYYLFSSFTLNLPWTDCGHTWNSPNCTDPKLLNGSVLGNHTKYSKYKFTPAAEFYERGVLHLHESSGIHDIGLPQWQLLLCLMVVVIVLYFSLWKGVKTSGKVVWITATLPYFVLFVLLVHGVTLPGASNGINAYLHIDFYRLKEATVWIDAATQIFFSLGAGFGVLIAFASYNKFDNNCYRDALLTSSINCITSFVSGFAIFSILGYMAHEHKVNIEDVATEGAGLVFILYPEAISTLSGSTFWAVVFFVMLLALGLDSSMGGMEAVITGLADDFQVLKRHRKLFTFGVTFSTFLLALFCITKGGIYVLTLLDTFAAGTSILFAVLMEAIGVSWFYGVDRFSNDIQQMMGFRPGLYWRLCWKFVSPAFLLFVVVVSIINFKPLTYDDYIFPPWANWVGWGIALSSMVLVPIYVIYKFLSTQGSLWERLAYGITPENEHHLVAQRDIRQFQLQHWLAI
Worth noting: pKi values are minus log10 of concentrations stated in mol/L.

Example entries begin here.
CN1C2CCC1[C@@H](C(=O)Nc1ccc(CNC(=O)[C@H]3C4CCC(C[C@@H]3c3ccc(-c5ccsc5)cc3)N4C)cc1)[C@@H](c1ccc(-c3ccsc3)cc1)C2 (stereo partly specified)    5.57
CN1C2CCC1[C@@H](C(=O)NCc1ccc(CCNC(=O)[C@H]3C4CCC(C[C@@H]3c3ccc(-c5ccsc5)cc3)N4C)cc1)[C@@H](c1ccc(-c3ccsc3)cc1)C2 (stereo partly specified)    5.89
CN1C2CCC1[C@@H](C(=O)NCc1cccc(CNC(=O)[C@H]3C4CCC(C[C@@H]3c3ccc(-c5ccsc5)cc3)N4C)c1)[C@@H](c1ccc(-c3ccsc3)cc1)C2    5.92
CN1C2CCC1[C@@H](C(=O)OCc1cn(CCOC(=O)[C@H]3C4CCC(C[C@@H]3c3ccc(Cl)cc3)N4C)nn1)[C@@H](c1ccc(Cl)cc1)C2 (stereo partly specified)    6.92
CN1C2CCC1[C@@H](C(=O)OCc1cn(CCCCCCCOC(=O)[C@H]3C4CCC(C[C@@H]3c3ccc(Cl)cc3)N4C)nn1)[C@@H](c1ccc(Cl)cc1)C2 (stereo partly specified)    7.70

Now turn to the next molecule.
### Prompt Give pKi (UniProtKB P23975) of the following molecule: COC(=O)[C@@H]1C2CCC(C[C@@H]1c1ccc(I)cc1)N2C (stereo partly specified)
### Response 7.72

---

biological target: Sodium-dependent dopamine transporter (Homo sapiens, UniProt Q01959); assay: Displacement of [125I]methyl 3-(4-iodophenyl)-8-methyl-8-aza-bicyclo[3.2.1]octane-2-carboxylate from human recombinant DAT expressed in african green monkey COS1 cells by liquid scintillation counting
Sequence (Q01959 whole entry): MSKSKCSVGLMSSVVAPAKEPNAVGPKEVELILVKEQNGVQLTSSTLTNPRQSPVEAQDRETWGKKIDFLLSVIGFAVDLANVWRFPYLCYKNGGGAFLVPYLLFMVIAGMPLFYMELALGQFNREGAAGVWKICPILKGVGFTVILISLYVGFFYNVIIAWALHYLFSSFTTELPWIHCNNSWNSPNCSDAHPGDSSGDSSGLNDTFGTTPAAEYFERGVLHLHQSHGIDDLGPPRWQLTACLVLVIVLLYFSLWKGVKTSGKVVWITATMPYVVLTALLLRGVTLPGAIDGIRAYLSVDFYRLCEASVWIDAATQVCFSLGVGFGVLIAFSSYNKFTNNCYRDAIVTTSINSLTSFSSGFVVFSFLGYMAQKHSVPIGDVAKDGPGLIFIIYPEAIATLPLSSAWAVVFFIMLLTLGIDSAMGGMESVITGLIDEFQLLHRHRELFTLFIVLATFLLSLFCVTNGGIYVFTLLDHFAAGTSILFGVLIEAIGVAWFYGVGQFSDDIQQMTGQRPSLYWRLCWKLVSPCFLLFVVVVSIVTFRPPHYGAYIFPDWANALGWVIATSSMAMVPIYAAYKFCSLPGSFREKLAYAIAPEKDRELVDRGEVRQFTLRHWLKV
Value kind: Ki (nM)
Write down the numeric answer in nM and omit the unit.

Record excerpt, results attached:
CN1C2CCC1[C@@H](C(=O)OCc1cn(CCCCCCCOC(=O)[C@H]3C4CCC(C[C@@H]3c3ccc(Cl)cc3)N4C)nn1)[C@@H](c1ccc(Cl)cc1)C2 (stereo partly drawn)    3.9
CN1C2CCC1[C@@H](C(=O)Nc1ccc(NC(=O)[C@H]3C4CCC(C[C@@H]3c3ccc(-c5ccsc5)cc3)N4C)cc1)[C@@H](c1ccc(-c3ccsc3)cc1)C2    210

Next up:
### Prompt So what's the measured Ki for this one? `CN1C2CCC1[C@@H](C(=O)N[C@H]1CC[C@H](NC(=O)[C@H]3C4CCC(C[C@@H]3c3ccc(-c5ccsc5)cc3)N4C)CC1)[C@@H](c1ccc(-c3ccsc3)cc1)C2`
### Response 1300

---

target: Sodium-dependent serotonin transporter (Homo sapiens, UniProt P31645); test: Displacement of [125I]methyl 3-(4-iodophenyl)-8-methyl-8-aza-bicyclo[3.2.1]octane-2-carboxylate from human recombinant SERT expressed in african green monkey COS1 cells by liquid scintillation counting
Sequence (P31645 whole entry): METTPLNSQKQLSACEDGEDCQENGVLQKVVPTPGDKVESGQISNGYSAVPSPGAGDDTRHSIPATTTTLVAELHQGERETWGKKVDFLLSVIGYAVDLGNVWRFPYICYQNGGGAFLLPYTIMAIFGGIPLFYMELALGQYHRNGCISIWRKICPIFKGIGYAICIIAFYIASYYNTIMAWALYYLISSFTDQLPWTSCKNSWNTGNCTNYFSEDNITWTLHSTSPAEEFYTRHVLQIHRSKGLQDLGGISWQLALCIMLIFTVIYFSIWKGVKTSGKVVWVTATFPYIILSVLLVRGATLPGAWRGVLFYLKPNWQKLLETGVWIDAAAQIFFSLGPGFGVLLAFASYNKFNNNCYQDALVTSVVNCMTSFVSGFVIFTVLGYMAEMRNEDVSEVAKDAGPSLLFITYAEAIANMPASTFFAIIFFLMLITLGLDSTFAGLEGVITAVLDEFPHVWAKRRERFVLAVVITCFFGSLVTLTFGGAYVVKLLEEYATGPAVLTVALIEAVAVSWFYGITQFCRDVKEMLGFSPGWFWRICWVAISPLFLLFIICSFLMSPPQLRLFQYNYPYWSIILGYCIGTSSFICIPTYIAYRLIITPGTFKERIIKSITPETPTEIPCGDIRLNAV
We begin with a simple list: items and their reported Ki.
# value in nM; strip the unit string

Known results for molecules:
CN1C2CCC1[C@@H](C(=O)Nc1ccc(CNC(=O)[C@H]3C4CCC(C[C@@H]3c3ccc(Cl)cc3)N4C)cc1)[C@@H](c1ccc(Cl)cc1)C2 (stereo partly specified)    1500
CN1C2CCC1[C@@H](C(=O)NCCCCCCCCCCNC(=O)[C@H]1C3CCC(C[C@@H]1c1ccc(-c4ccsc4)cc1)N3C)[C@@H](c1ccc(-c3ccsc3)cc1)C2    250
CN1C2CCC1[C@@H](C(=O)NCc1ccc(CNC(=O)[C@H]3C4CCC(C[C@@H]3c3ccc(-c5ccsc5)cc3)N4C)cc1)[C@@H](c1ccc(-c3ccsc3)cc1)C2    160
CN1C2CCC1[C@@H](C(=O)OCc1cn(CCCCCCOC(=O)[C@H]3C4CCC(C[C@@H]3c3ccc(Cl)cc3)N4C)nn1)[C@@H](c1ccc(Cl)cc1)C2 (stereo partly specified)    0.86
CN1C2CCC1[C@@H](C(=O)OCCCCCn1ccnn1)[C@@H](c1ccc(Cl)cc1)C2 (stereo partly specified)    20

# ---- query molecule ----
### Prompt Tell me the measured Ki of `CN1C2CCC1[C@@H](C(=O)NCCCCCCCCNC(=O)[C@H]1C3CCC(C[C@@H]1c1ccc(-c4ccsc4)cc1)N3C)[C@@H](c1ccc(-c3ccsc3)cc1)C2` , please.
### Response 470

---

target: Sodium-dependent serotonin transporter (Homo sapiens, UniProt P31645); experiment: Displacement of [125I]methyl 3-(4-iodophenyl)-8-methyl-8-aza-bicyclo[3.2.1]octane-2-carboxylate from human recombinant SERT expressed in african green monkey COS1 cells by liquid scintillation counting
pKi: −log10 of the molar value.
Could you label it fulfilled if measured pKi is 6 or higher, and not fulfilled otherwise?

### Prompt Is it the case that CN1C2CCC1[C@@H](C(=O)OCc1cn(CCOC(=O)[C@H]3C4CCC(C[C@@H]3c3ccc(Cl)cc3)N4C)nn1)[C@@H](c1ccc(Cl)cc1)C2 (stereo partly specified) has pKi reaching or exceeding 6?
### Response fulfilled

---

species on record: Homo sapiens; test: Selectivity ratio of Ki for human SERT to Ki for human DAT
Value kind: Ratio Ki

Worked set:
CN1C2CCC1[C@@H](C(=O)Nc1ccc(NC(=O)[C@H]3C4CCC(C[C@@H]3c3ccc(-c5ccsc5)cc3)N4C)cc1)[C@@H](c1ccc(-c3ccsc3)cc1)C2    1.3
CN1C2CCC1[C@@H](C(=O)OCc1cn(CCCCCCOC(=O)[C@H]3C4CCC(C[C@@H]3c3ccc(Cl)cc3)N4C)nn1)[C@@H](c1ccc(Cl)cc1)C2 (some centres not stated)    0.86
CN1C2CCC1[C@@H](C(=O)Nc1ccc(CCNC(=O)[C@H]3C4CCC(C[C@@H]3c3ccc(Cl)cc3)N4C)cc1)[C@@H](c1ccc(Cl)cc1)C2 (some centres not stated)    390
CN1C2CCC1[C@@H](C(=O)Nc1ccc(CCNC(=O)[C@H]3C4CCC(C[C@@H]3c3ccc(-c5ccsc5)cc3)N4C)cc1)[C@@H](c1ccc(-c3ccsc3)cc1)C2 (some centres not stated)    0.48
COC(=O)[C@@H]1C2CCC(C[C@@H]1c1ccc(I)cc1)N2C (some centres not stated)    1.1
CN1C2CCC1[C@@H](C(=O)NCCC1CCN(C(=O)[C@H]3C4CCC(C[C@@H]3c3ccc(Cl)cc3)N4C)CC1)[C@@H](c1ccc(Cl)cc1)C2 (some centres not stated)    14

### Prompt Query: Ratio Ki; subject: CN1C2CCC1[C@@H](C(=O)OCCCCCn1ccnn1)[C@@H](c1ccc(Cl)cc1)C2 (some centres not stated)
### Response 3.6

---

species on record: Homo sapiens; test: Selectivity ratio of Ki for human SERT to Ki for human DAT
Value kind: Ratio Ki

CN1C2CCC1[C@@H](C(=O)N[C@H]1CC[C@H](NC(=O)[C@H]3C4CCC(C[C@@H]3c3ccc(Cl)cc3)N4C)CC1)[C@@H](c1ccc(Cl)cc1)C2    4.6
CN1C2CCC1[C@@H](C(=O)NCc1cccc(CNC(=O)[C@H]3C4CCC(C[C@@H]3c3ccc(-c5ccsc5)cc3)N4C)c1)[C@@H](c1ccc(-c3ccsc3)cc1)C2    3.7
CN1C2CCC1[C@@H](C(=O)Nc1ccc(CNC(=O)[C@H]3C4CCC(C[C@@H]3c3ccc(-c5ccsc5)cc3)N4C)cc1)[C@@H](c1ccc(-c3ccsc3)cc1)C2 (stereo partly specified)    0.92
CN1C2CCC1[C@@H](C(=O)NCc1ccc(CCNC(=O)[C@H]3C4CCC(C[C@@H]3c3ccc(-c5ccsc5)cc3)N4C)cc1)[C@@H](c1ccc(-c3ccsc3)cc1)C2 (stereo partly specified)    0.38
CN1C2CCC1[C@@H](C(=O)N[C@H]1CC[C@H](NC(=O)[C@H]3C4CCC(C[C@@H]3c3ccc(-c5ccsc5)cc3)N4C)CC1)[C@@H](c1ccc(-c3ccsc3)cc1)C2    0.62

### Prompt State the recorded Ratio Ki for this entry: `CN1C2CCC1[C@@H](C(=O)Nc1ccc(NC(=O)[C@H]3C4CCC(C[C@@H]3c3ccc(Cl)cc3)N4C)cc1)[C@@H](c1ccc(Cl)cc1)C2`
### Response 4.6

---

target: UniProtKB P31645; assay: Displacement of [125I]methyl 3-(4-iodophenyl)-8-methyl-8-aza-bicyclo[3.2.1]octane-2-carboxylate from human recombinant SERT expressed in african green monkey COS1 cells by liquid scintillation counting
Parameter: Ki. Scope: all listed entries.
Record the result as a number with its unit.

CN1C2CCC1[C@@H](C(=O)Nc1ccc(NC(=O)[C@H]3C4CCC(C[C@@H]3c3ccc(Cl)cc3)N4C)cc1)[C@@H](c1ccc(Cl)cc1)C2    3200 nM
CN1C2CCC1[C@@H](C(=O)Nc1ccc(NC(=O)[C@H]3C4CCC(C[C@@H]3c3ccc(-c5ccsc5)cc3)N4C)cc1)[C@@H](c1ccc(-c3ccsc3)cc1)C2    270 nM

### Prompt What measured Ki goes with CN1C2CCC1[C@@H](C(=O)OCc1cn(CCCCCCCOC(=O)[C@H]3C4CCC(C[C@@H]3c3ccc(Cl)cc3)N4C)nn1)[C@@H](c1ccc(Cl)cc1)C2 (stereo partly drawn) ?
### Response 3.5 nM
